B1: Pistol ribozyme (parent)
chain: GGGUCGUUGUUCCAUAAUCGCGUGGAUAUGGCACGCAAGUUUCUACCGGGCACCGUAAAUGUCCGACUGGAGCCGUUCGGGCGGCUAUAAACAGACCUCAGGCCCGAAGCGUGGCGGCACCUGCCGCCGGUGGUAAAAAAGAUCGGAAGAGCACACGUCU

# Variants of: B1
# MEASUREMENT_PROTOCOL: aptazyme ON/OFF ratio, guanine; higher = stronger switching; co-transcriptional cleavage with and without guanine
ASSAY_READOUT: aptazyme ON/OFF ratio
Answer with a bare number; do not write a unit.

Some variants with known aptazyme ON/OFF ratio results, for comparison:
# MUTATION_ID, NUMBER
rows = [
    ("U7A U8A G9U U10A C12G C13G", 1.18),
    ("U7G G9U U11A C12G C13G", 1.23),
    ("U7A U8A G9U U11C C12G", 1.19),
]

Next up:
Given U7A U8C U10C U11C C12U C13G , state its recorded aptazyme ON/OFF ratio. 1.23
